The measurements presented in this section are drawn from PubChem BioAssay (NCATS).

- procedure_text: Quantitative High-Throughput drug screen in 47 multiple myeloma cell lines against the NCATS MIPE library collection: Karpas25_ECACC cell viability assay (AID 1918968; also: potency is read from the fitted curve at half-maximal effect; nearly all actives have a fitted effect of over 35% in size)
- run_conditions: Karpas25 myeloma viability, CellTiter-Glo ATP, 48 h; series mostly up to 45.8 µM
Records with an inconclusive call do not appear. Calls of active or inactive are those of the source. Calls follow the shape of the dose curve; as a rule, active = well fitted cell-killing curve with a large enough effect; inconclusive = small, poorly fitted or top-dose-only effect, or effect the other way; inactive = no such curve, though single readings can be large or run the other way.
I'd appreciate it if you could supply Potency values for the items below.

// known answers, use as guide
smiles_record=COc1ccc(-c2oc3c(CC=C(C)C)c(O)cc(O)c3c(=O)c2O)cc1 endpoint_value="14.8 µM (active)"
smiles_record=OCCn1cc(-c2ccc3c(c2)CCC3=NO)c(-c2ccncc2)n1 endpoint_value="23.5 µM (active)"
smiles_record=O=C1C(c2c(O)[nH]c3ccccc23)=Nc2ccccc21 endpoint_value="6.62 µM (active)"
smiles_record=Cc1cccc2c1CC[C@H](CN1CCC(c3c(Cl)cccc3Cl)CC1)C[C@@H]2O endpoint_value="18.7 µM (active)"

Reported Potency for CCC(=O)NCC[C@@H]1CCc2ccc3c(c21)CCO3 : what is it?
13.2 µM (active)

* * *

I'd appreciate it if you could supply parasite growth, % of control (lower = inhibition) values for the items below.
- procedure_text: qHTS profiling of the MIPE4 collection as inhibitors of Plasmodium falciparum (DD2) proliferation (Rep 2) (AID 743346)
- run_conditions: P. falciparum Dd2 in erythrocytes, SYBR Green DNA, 72 h; at 28.5 µM (top of the series) unless noted
Numeric answer plus unit only.

// known answers, use as guide
compound="N#CC(c1ccnc(NCCc2cccnc2)n1)c1nc2ccccc2s1 (configuration not stated)" endpoint_value=15.5%
compound=C=CC[N+]1([C@H]2C[C@H]3[C@@H]4CC[C@H]5C[C@H](O)[C@@H](N6CCOCC6)C[C@]5(C)[C@@H]4CC[C@]3(C)[C@H]2OC(C)=O)CCCC1 endpoint_value=21.1%
compound=C[C@]12C=CC(=O)C=C1CC[C@@H]1[C@@H]2[C@@H](O)C[C@@]2(C)[C@@H]1CC[C@]2(O)C(=O)CO endpoint_value=86.4%

Report parasite growth, % of control (lower = inhibition) for every entry below.
1. Cc1cccc2c1CC[C@H](CN1CCC(c3c(Cl)cccc3Cl)CC1)C[C@@H]2O
2. NS(=O)(=O)c1ccc(Nc2nc(OCC3CCCCC3)c3[nH]cnc3n2)cc1

1. 25%
2. 24.8%

Report parasite growth, % of control (lower = inhibition) for every entry below.
1. Cc1ccccc1-n1c(Cn2nc(-c3cccc(O)c3)c3c(N)ncnc32)nc2cccc(C)c2c1=O
2. CN(C(Cc1ccc(OS(=O)(=O)c2cccc3cnccc23)cc1)C(=O)N1CCN(c2ccccc2)CC1)S(=O)(=O)c1cccc2cnccc12 (configuration not stated)

1. 15%
2. 10.8%

Report parasite growth, % of control (lower = inhibition) for every entry below.
1. Cn1cnc(-c2cc3nccc(Oc4ccc(NC(=S)NC(=O)Cc5ccccc5)cc4F)c3s2)c1
2. CCN1CCN(c2ccc(Nc3cc(N(C)C(=O)Nc4c(Cl)c(OC)cc(OC)c4Cl)ncn3)cc2)CC1
3. CN1c2ccccc2C(=O)N2CCc3c([nH]c4ccccc34)C21 (configuration not stated)
4. Cc1cc(-c2ncc(CC(=O)Nc3ccc(-c4cnccn4)cn3)cc2C)ccn1
5. CC1(C)[C@H]2CC[C@]3(C)[C@@H](C(=O)C=C4[C@@H]5C[C@@](C)(C(=O)O)CC[C@]5(C)CC[C@]43C)[C@@]2(C)CC[C@@H]1O
6. Cc1ccccc1C(C(=O)NC1CCCCC1)N(C(=O)CNc1ccc(C#N)cc1)c1cccc(F)c1 (configuration not stated)
7. CCCCC(F)(F)[C@@]1(O)CC[C@H]2[C@H](CC(=O)[C@@H]2CCCCCCC(=O)O)O1
8. CNC1CCC(N(Cc2cccc(-c3ccncc3)c2)C(=O)c2sc3ccccc3c2Cl)CC1 (configuration not stated)

1. 28.5%
2. 8.62%
3. 90.2%
4. 71.8%
5. 84.9%
6. 75.5%
7. 70.3%
8. 9.91%

Report parasite growth, % of control (lower = inhibition) for every entry below.
1. Cc1ccc(C(=O)N(CCCN)[C@@H](c2oc3cc(Cl)ccc3c(=O)c2Cc2ccccc2)C(C)C)cc1
2. CO[C@@H]1C(N(C)C(=O)c2ccccc2)C[C@H]2O[C@]1(C)n1c3ccccc3c3c4c(c5c6ccccc6n2c5c31)C(=O)NC4=O (some centres not stated)

8.99%
122%
